melting point strictly under 100 °C means True; at 100 °C or over means False.

Example cases with answers are listed next.
Cc1cc(C#N)ccc1[N+](=O)[O-] :: True
N#CC(C#N)=Cc1ccc(Cl)cc1 :: True
CC1=CC=C(C(C)C)CC1 :: True
C=C(C)C(N)=O :: False

Please find the next compound below.
QUERY: Hello, is melting point of the following compound strictly smaller than 100 °C? Cc1ccc(C(C(=O)NC(C)(C)C)N(C)C(=O)CCCc2ccc3ccc4cccc5ccc2c3c45)cc1 (configuration not stated)
RESULT: False

---

measured_property: melting point (°C)
// units = °C; emit number, no label

CCC(C)(C(N)=O)c1ccccc1 (stereo not drawn) :: 101
CC(=O)Oc1ccc(C)c(C)c1 :: 22
COc1cc([N+](=O)[O-])c2ncccc2c1 :: 159
Cc1cc(C(C)(C)C)cc(C)c1O :: 82.4
Nc1nnc(-c2ccccc2)c(Nc2ccc(Br)cc2)n1 :: 203
COC(=O)C1(S(=O)(=O)c2ccccc2)CCC1 :: 108
Cc1ccc(I)cc1F :: 23

The record that follows has no melting point shown yet.
QUERY: Return the recorded melting point value; entry: Cc1ccc(F)c(O)c1
RESULT: 32

---

Reported melting point values for the following molecules.
// units = °C; emit number, no label

Some molecules with known melting point results, for comparison:
CC(C)c1cccc(O)c1O :: 47
N#Cc1ccc(C=Cc2ccccc2C=NNc2ccccc2)c([N+](=O)[O-])c1 :: 182

The record that follows has no melting point shown yet.
QUERY: Return the recorded melting point value; entry: O=C(O)c1c(O)ccc(F)c1F
RESULT: 183

---

Reported melting point values for the following molecules.
// units = °C; emit number, no label

Cc1ccc(S(=O)(=O)Oc2c(C(=O)c3ccc(Cl)cc3Cl)c(C)nn2C)cc1 :: 118

QUERY: Return the recorded melting point value; entry: O=Cc1ccc(C(=O)O)s1
RESULT: 169

QUERY: Return the recorded melting point value; entry: O=C(O)COc1c(F)c(F)c(F)c(F)c1F
RESULT: 109

QUERY: Return the recorded melting point value; entry: CSc1ccc(N)cc1C(F)(F)F
RESULT: 57

QUERY: Return the recorded melting point value; entry: Cc1c(Nc2ncccc2C(=O)O)cccc1C(F)(F)F
RESULT: 226

QUERY: Return the recorded melting point value; entry: Cc1cccnc1NC(=O)C(F)(F)C(F)(F)C(F)(F)C(F)(F)C(F)(F)C(F)(F)C(F)(F)C(F)(F)F
RESULT: 161

QUERY: Return the recorded melting point value; entry: C=C1CC(=O)OC1=O
RESULT: 69

QUERY: Return the recorded melting point value; entry: COc1ccccc1C=CC(=O)c1ccc(O)cc1O
RESULT: 177

QUERY: Return the recorded melting point value; entry: CC(=O)OC1(C(C)=O)CCC2(C)C(CCC3C4CCC(O)C4(C)CCC32)C1 (configuration not stated)
RESULT: 193

QUERY: Return the recorded melting point value; entry: Oc1ccc(F)nc1
RESULT: 152

---

Reported melting point values for the following molecules.
// units = °C; emit number, no label

CC(=O)c1c(C(C)C)cc(C(C)C)cc1C(C)C :: 87
CC(=O)OCCc1ccc(CCOC(C)=O)cc1 :: 65

QUERY: Return the recorded melting point value; entry: CCO[Si](Cl)(OCC)OCC
RESULT: -51

QUERY: Return the recorded melting point value; entry: COc1ccccc1C1(C)CCc2oc3ccc(C)cc3c2-c2oc(C)cc21 (stereo unspecified)
RESULT: 179
